- system_under_test: Mineralocorticoid receptor (Homo sapiens, UniProt P08235)
- Sequence (P08235 whole entry, the tested form may be a part): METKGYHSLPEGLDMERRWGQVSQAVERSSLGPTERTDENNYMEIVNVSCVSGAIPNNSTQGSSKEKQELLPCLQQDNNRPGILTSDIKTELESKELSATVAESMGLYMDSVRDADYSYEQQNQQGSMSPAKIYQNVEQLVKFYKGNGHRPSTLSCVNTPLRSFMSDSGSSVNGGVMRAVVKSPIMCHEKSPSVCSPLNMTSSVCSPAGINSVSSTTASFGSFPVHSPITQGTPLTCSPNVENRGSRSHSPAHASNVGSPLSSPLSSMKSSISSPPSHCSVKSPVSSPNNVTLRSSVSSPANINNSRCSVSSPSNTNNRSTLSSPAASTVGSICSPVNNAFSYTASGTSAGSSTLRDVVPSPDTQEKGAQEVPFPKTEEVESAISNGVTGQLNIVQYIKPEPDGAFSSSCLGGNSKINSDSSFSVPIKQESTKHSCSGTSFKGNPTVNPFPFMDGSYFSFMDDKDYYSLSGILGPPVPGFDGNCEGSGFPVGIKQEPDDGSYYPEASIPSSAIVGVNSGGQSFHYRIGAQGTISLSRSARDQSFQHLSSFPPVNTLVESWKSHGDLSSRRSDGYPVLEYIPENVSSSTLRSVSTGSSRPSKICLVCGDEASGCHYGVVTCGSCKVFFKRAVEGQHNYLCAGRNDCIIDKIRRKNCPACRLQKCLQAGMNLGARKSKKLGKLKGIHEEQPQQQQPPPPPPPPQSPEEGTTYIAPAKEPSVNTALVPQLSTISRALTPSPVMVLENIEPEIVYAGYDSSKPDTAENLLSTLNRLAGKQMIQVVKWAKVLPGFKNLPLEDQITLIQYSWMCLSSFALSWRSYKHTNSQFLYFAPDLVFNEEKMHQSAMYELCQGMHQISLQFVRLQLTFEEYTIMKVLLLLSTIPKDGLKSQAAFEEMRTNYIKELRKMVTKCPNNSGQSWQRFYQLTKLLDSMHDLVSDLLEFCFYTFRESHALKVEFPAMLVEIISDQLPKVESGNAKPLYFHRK
- protocol_text: Displacement of [3H]aldosterone from GST-tagged human mineralocorticoid receptor ligand binding domain after 4 hrs by liquid scintillation counting
measured_metric: IC50 (nM)

| smiles_data | measured_metric | observed |
| --- | --- | --- |
| Cc1ccccc1S(=O)(=O)NCc1ccc(-n2ccnc2C)cc1 | IC50 | 1210 |
| Cc1noc(C)c1S(=O)(=O)NCc1ccc(-c2cccnc2)cc1 | IC50 | 1530 |
| Cc1noc(C)c1S(=O)(=O)NCc1ccc(-c2cccc(NS(C)(=O)=O)c2)cc1 | IC50 | 1390 |

---

- protocol_text: Lipophilicity, log D of the compound
- Type: physicochemical
- applied_conditions: octanol/water
measured_metric: logD

| smiles_data | measured_metric | observed |
| --- | --- | --- |
| Cc1nccn1-c1ccc(CNS(=O)(=O)c2cc(F)ccc2F)cc1 | logD | 2.1 |
| Cc1noc(C)c1S(=O)(=O)NCc1ccc(-c2cccc(NS(C)(=O)=O)c2)cc1 | logD | 2.9 |
| Cc1nccn1-c1ccc(CNS(=O)(=O)c2ccccc2F)cc1 | logD | 1.8 |
| Cc1cc(C)c(S(=O)(=O)NCc2ccc(-n3ccnc3C)cc2)c(C)c1 | logD | 3.2 |
| COc1ccc(C#N)cc1-c1ccc(CNS(=O)(=O)c2c(C)noc2C)cc1 | logD | 3.2 |
| Cc1noc(C)c1S(=O)(=O)NCc1ccc(-c2cccc(C(N)=O)c2)cc1 | logD | 2.4 |
| Cc1noc(C)c1S(=O)(=O)NCc1ccc(-c2cccnc2)cc1 | logD | 2.4 |
